assayedSystem: NRAS G12C (Homo sapiens (Human), UniProt P01111+P62937, G12C)
Sequence (P01111 whole entry G12C): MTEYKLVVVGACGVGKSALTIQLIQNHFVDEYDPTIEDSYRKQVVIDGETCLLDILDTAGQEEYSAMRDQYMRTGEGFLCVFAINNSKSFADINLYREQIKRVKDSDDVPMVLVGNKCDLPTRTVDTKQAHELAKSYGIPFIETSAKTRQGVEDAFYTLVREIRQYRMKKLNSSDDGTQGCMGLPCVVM
Sequence (P62937 whole entry): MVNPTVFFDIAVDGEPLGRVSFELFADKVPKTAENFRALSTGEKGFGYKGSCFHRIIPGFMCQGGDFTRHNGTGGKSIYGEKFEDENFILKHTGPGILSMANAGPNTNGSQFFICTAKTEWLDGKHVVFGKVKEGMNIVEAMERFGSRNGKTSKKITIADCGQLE
measurementProtocol: Ras-Raf disruption/FRET/MOA assay (BRAF RBD, Cyclophilin A)
Type: biochemical
testSettings: read-out: NRAS G12C FRET data IC50
pIC50: −log10 of the molar value.
measurementType: pIC50

{"smilesString": "CCn1c(-c2cnccc2COC)c2c3cc(ccc31)-c1cc(O)cc(c1)C[C@H](NC(=O)[C@H](C(C)C)N(C)C(=O)N1CCN(C)CC1)C(=O)N1CCC[C@H](N1)C(=O)OCC(C)(C)C2", "observedValue": "6.00 to 7.00"}
{"smilesString": "CCn1c(-c2cccnc2[C@H](C)OC)c2c3cc(ccc31)-c1cc(O)cc(c1)C[C@H](NC(=O)[C@H](C(C)C)N(C)C(=O)[C@H]1CCN(C(C)=O)C1)C(=O)N1CCC[C@H](N1)C(=O)NCC(C)(C)C2", "observedValue": "6.00 to 7.00"}
{"smilesString": "CCn1c(-c2cccnc2[C@H](C)OC)c2c3cc(ccc31)-c1csc(n1)C[C@H](NC(=O)[C@H](C(C)C)N(C)C(=O)N1CCN(C(C)=O)CC1)C(=O)N1CCC[C@H](N1)C(=O)OCC(C)(C)C2", "observedValue": "7.00 to 8.00"}
{"smilesString": "CCn1c(-c2cnccc2COC)c2c3cc(ccc31)-c1cc(O)cc(c1)C[C@H](NC(=O)[C@H](C(C)C)N(C)C(=O)CN/C(N)=N/C#N)C(=O)N1CCC[C@H](N1)C(=O)OCC(C)(C)C2", "observedValue": "6.00 to 7.00"}
{"smilesString": "CCn1c(-c2cccnc2[C@H](C)OC)c2c3cc(ccc31)-c1cccc(c1)C[C@H](NC(=O)[C@H](C(C)C)N(C)C(=O)[C@@H]1OCC[C@@H]1c1ccccc1)C(=O)N1CCC[C@H](N1)C(=O)OCC(C)(C)C2", "observedValue": "6.00 to 7.00"}
{"smilesString": "CCn1c(-c2cccnc2[C@H](C)OC)c2c3cc(ccc31)-c1csc(n1)C[C@H](NC(=O)[C@H](C(C)C)N(C)C(=O)N1CC3CC(C1)O3)C(=O)N1CCC[C@H](N1)C(=O)OCC(C)(C)C2", "observedValue": "6.00 to 7.00"}
{"smilesString": "CCn1c(-c2cccnc2[C@H](C)OC)c2c3cc(ccc31)-c1csc(n1)C[C@H](NC(=O)C1(F)CC1)C(=O)N1CCC[C@H](N1)C(=O)OCC(C)(C)C2", "observedValue": "6.00 to 7.00"}
{"smilesString": "CCn1c(-c2cccnc2[C@H](C)OC)c2c3cc(ccc31)-c1cc(O)cc(c1)C[C@H](NC(=O)[C@H](C(C)C)N(C)C(=O)[C@H]1CCCCNC1)C(=O)N1CCC[C@H](N1)C(=O)OCC(C)(C)C2", "observedValue": "7.00 to 8.00"}
{"smilesString": "CCn1c(-c2cccnc2[C@H](C)OC)c2c3cc(ccc31)-c1csc(n1)C[C@H](NC(=O)[C@H](C(C)C)N(C)C(=O)N1CCOC[C@@H]1C)C(=O)N1CCC[C@H](N1)C(=O)OCC(C)(C)C2", "observedValue": "6.00 to 7.00"}
{"smilesString": "CCn1c(-c2cccnc2[C@H](C)OC)c2c3cc(ccc31)-c1cc(O)cc(c1)C[C@H](NC(=O)[C@H](C(C)C)N(C)C(=O)OCc1ccccc1)C(=O)N1CCC[C@H](N1)C(=O)OCC(C)(C)C2", "observedValue": "5.00 to 6.00"}
{"smilesString": "CCn1c(-c2cccnc2[C@H](C)OC)c2c3cc(ccc31)-c1cc(O)cc(c1)C[C@H](NC(=O)C(C)=C(C)C)C(=O)N1CCC[C@H](N1)C(=O)OCC(C)(C)C2", "observedValue": "5.00 to 6.00"}
{"smilesString": "CCn1c(-c2cccnc2[C@H](C)OC)c2c3cc(ccc31)-c1cc(c3cn[nH]c3c1)C[C@H](NC(=O)[C@H](C(C)C)N(C)C(C)=O)C(=O)N1CCC[C@H](N1)C(=O)OCC(C)(C)C2", "observedValue": "5.00 to 6.00"}
{"smilesString": "CCn1c(-c2cccnc2[C@H](C)OC)c2c3cc(ccc31)-c1csc(n1)C[C@H](NC(=O)[C@H](C(C)C)N(C)C(=O)N1CC(C3COC3)C1)C(=O)N1CCC[C@H](N1)C(=O)OCC(C)(C)C2", "observedValue": "7.00 to 8.00"}
{"smilesString": "CCn1c(-c2cccnc2[C@H](C)OC)c2c3cc(ccc31)-c1cc(O)cc(c1)C[C@H](NC(=O)[C@H](C(C)C)N(C)C(=O)[C@H]1C[C@@H]1F)C(=O)N1CCC[C@H](N1)C(=O)OCC(C)(C)C2", "observedValue": "6.00 to 7.00"}
{"smilesString": "CCn1c(-c2cccnc2[C@H](C)OC)c2c3cc(ccc31)-c1csc(n1)C[C@H](NC(=O)[C@H](C(C)C)N(C)C(=O)N1CC([C@H](C)N(C)C)C1)C(=O)N1CCC[C@H](N1)C(=O)OCC(C)(C)C2", "observedValue": "7.00 to 8.00"}
{"smilesString": "CCn1c(-c2cnccc2COC)c2c3cc(ccc31)-c1cc(O)cc(c1)C[C@H](NC(=O)[C@@H](NC(C)=O)C(C)C)C(=O)N1CCC[C@H](N1)C(=O)OCC(C)(C)C2", "observedValue": "5.00 to 6.00"}
{"smilesString": "CCn1c(-c2cccnc2[C@H](C)OC)c2c3cc(ccc31)-c1csc(n1)C[C@H](NC(=O)[C@H](C(C)C)N(C)C(=O)N1CCCC3(CN(C)C3)C1)C(=O)N1CCC[C@H](N1)C(=O)OCC(C)(C)C2", "observedValue": "6.00 to 7.00"}
{"smilesString": "CCn1c(-c2cccnc2[C@H](C)OC)c2c3cc(ccc31)-c1csc(n1)C[C@H](NC(=O)[C@H](C(C)C)N(C)C(=O)N1CC([C@H](CO)OC)C1)C(=O)N1CCC[C@H](N1)C(=O)OCC(C)(C)C2", "observedValue": "7.00 to 8.00"}
